# System: D. discoideum GFP-ABD
# protocol-conditions: 10 µM
Could you please mark yes (1) for values of D. discoideum GFP-ABD normalised growth, control=1.00, mean below 0.9 and no (0) for values at or above it?

Use these answered entries as a reference point.
Input line: hey, is D. discoideum GFP-ABD normalised growth, control=1.00, mean for Cc1ccc2nc(C)c(C(=O)NCC(C)C)n2c1 [GSK1829816A] lower than 0.9 or not?
Output line: no (0)

Input line: Does this compound meet the criterion D. discoideum GFP-ABD normalised growth, control=1.00, mean < 0.9? FC(F)(F)c1nnc2ccc(Cl)nn12 [GSK352635A]
Output line: no (0)

Input line: Is the reported D. discoideum GFP-ABD normalised growth, control=1.00, mean for O=C(NNC(=O)c1ccc([N+](=O)[O-])o1)c1ccc2ccccc2c1 [GSK347301A] strictly below 0.9?
Output line: yes (1)

Input line: Hello, I'm reviewing records and need to know if D. discoideum GFP-ABD normalised growth, control=1.00, mean of CCn1c(=O)c(=O)[nH]c2cc(C(=O)Nc3ccccc3Nc3ccc(OC)cc3)ccc21 [GSK1385423A] is below 0.9. Could you check?
Output line: yes (1)

Input line: Please check: D. discoideum GFP-ABD normalised growth, control=1.00, mean for Cc1ccc2[nH]c(C3CCCNC3)c(-c3ccncc3)c2c1 (centres unmarked) [GSK1905227A] , strictly under 0.9 or not?
Output line: yes (1)

Input line: I'd appreciate it if you could check whether CNc1nc(SC)nc2ccccc12 [GSK353069A] has D. discoideum GFP-ABD normalised growth, control=1.00, mean smaller than 0.9.
Output line: no (0)

Input line: For this compound, is D. discoideum GFP-ABD normalised growth, control=1.00, mean lower than 0.9? Cc1ccc2nc(C(F)(F)F)c(C(=O)NCc3cccc(OC(C)C)c3)n2c1 [GSK1829733A]
Output line: no (0)

Input line: Threshold test, D. discoideum GFP-ABD normalised growth, control=1.00, mean < 0.9: CCN(Cc1ccc2c(c1)OCO2)C(=O)CSc1nc(NC)c2ccccc2n1 [GSK1859936A]
Output line: no (0)

Input line: Does COc1ccc2nc(C)cc(OCC(=O)Nc3cc(C)cc(C)c3)c2c1 [GSK749336A] have D. discoideum GFP-ABD normalised growth, control=1.00, mean strictly under 0.9?
Output line: yes (1)

# evaluate next
Input line: Identify whether the compound CN1CCN(c2ccc(C(F)(F)F)cc2NC(=O)c2ccccn2)CC1 [GSK1750922A] records D. discoideum GFP-ABD normalised growth, control=1.00, mean below 0.9.
Output line: yes (1)

###

# Tested on: D. discoideum GFP-ABD
Tick class 1 if Growth inhibition / Cytotoxicity assays: D. discoideum GFP-ABD is 1 or greater. Tick class 0 if Growth inhibition / Cytotoxicity assays: D. discoideum GFP-ABD is less than 1.

Worked set:
Input line: Test whether the compound O=C(Nc1nc(-c2ccccn2)cs1)c1cncn1-c1ccccc1 [GSK1691553A] records Growth inhibition / Cytotoxicity assays: D. discoideum GFP-ABD of 1 or higher.
Output line: class 0

Input line: Growth inhibition / Cytotoxicity assays: D. discoideum GFP-ABD >= 1 for Fc1ccc2nc(Nc3nc(-c4ccccn4)cs3)sc2c1 [GSK735816A] ?
Output line: class 0

Input line: Item O=C(CCCSc1ccccc1)NNC(=O)c1cccs1 [GSK2157753A] with Growth inhibition / Cytotoxicity assays: D. discoideum GFP-ABD of 1 or above?
Output line: class 1

---
Input line: API: above_or_equal(metric=Growth inhibition / Cytotoxicity assays: D. discoideum GFP-ABD, cutoff=1) for item c1ccc(-c2nnc(Sc3ccnc(N4CCN(c5ccncc5)CC4)n3)n2CCCN2CCOCC2)nc1 [GSK547543A]
Output line: class 0

Input line: Dear colleague, could you confirm whether NC(=O)c1cc(-c2ccsc2)ccc1OCCOc1ccccc1 [GSK1365028A] has Growth inhibition / Cytotoxicity assays: D. discoideum GFP-ABD at or above 1?
Output line: class 0

Input line: Decide: Growth inhibition / Cytotoxicity assays: D. discoideum GFP-ABD of Cc1cc(OCC(=O)NCc2ccccc2)c2cc(Br)ccc2n1 [GSK124576A] >= 1?
Output line: class 0

Input line: Given O=C(C1CCN(c2nnc(-n3cccc3)s2)CC1)N1CCC(Cc2ccccc2)CC1 [GSK2032710A] , state whether its Growth inhibition / Cytotoxicity assays: D. discoideum GFP-ABD is at least 1.
Output line: class 1

Input line: Form field: Growth inhibition / Cytotoxicity assays: D. discoideum GFP-ABD at least 1? Entry: O=C(Cc1ccc(F)cc1)Nc1nc(-c2ccccn2)cs1 [GSK1570606A]
Output line: class 0

Input line: Entry O=C(OCc1c(F)cccc1Cl)c1ccc(-n2ncc(Cl)c(Cl)c2=O)cc1 [GSK1826825A] : is its Growth inhibition / Cytotoxicity assays: D. discoideum GFP-ABD no less than 1?
Output line: class 1
